# System: acetylsalicylic acid-induced gastric ulcers
# assay: Inhibition of Acetylsalicylic Acid-Induced Gastric Ulcers in Rats
# Format: in vivo, Sprague-Dawley rats (male)
# stated-conditions: Rattus norvegicus, sc, 4 h, s.c. 30 minutes before acetylsalicylic acid, read-out: ED50 Acetylsalicilic acid s.c.
measured-attribute: ED50 (mg/kg)

• CCC1c2c(ncn2C)CCN1C(=S)NC(C)C (stereo not shown) [II CH3 C2 H5 i.Pr, reference compound] = 25
• CCC1c2ncn(C)c2CCN1C(=S)NC(C)C (stereo not shown) = 10
• CCC1c2ncn(CC)c2CCN1C(=S)NC(C)C (stereo not shown) = 0.7
• CCC1c2c(ncn2CC)CCN1C(=S)NC(C)C (stereo not shown) [II C2 H5 C2 H5 i.Pr, reference compound] = 6.5
